- experimental.system: human FSH receptor (Homo sapiens, UniProt P23945)
- Sequence (P23945 18-695): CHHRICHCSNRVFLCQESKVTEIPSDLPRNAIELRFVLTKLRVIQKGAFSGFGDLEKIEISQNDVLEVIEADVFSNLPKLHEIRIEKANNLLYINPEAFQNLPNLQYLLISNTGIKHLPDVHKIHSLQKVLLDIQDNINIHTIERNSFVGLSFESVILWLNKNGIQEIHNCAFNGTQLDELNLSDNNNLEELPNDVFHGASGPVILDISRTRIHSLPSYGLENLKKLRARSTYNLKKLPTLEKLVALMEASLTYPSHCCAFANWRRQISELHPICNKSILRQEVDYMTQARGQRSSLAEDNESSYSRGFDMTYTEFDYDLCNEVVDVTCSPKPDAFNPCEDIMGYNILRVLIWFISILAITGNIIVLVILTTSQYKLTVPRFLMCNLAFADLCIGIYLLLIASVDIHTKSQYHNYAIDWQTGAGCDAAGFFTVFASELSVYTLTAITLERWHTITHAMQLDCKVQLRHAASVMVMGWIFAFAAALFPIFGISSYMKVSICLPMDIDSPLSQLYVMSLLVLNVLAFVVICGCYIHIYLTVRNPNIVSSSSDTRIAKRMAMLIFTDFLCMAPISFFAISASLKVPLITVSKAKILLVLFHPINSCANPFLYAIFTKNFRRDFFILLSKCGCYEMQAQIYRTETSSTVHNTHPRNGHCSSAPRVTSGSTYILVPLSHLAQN
- assay.notes: HTRF assay for measuring cAMP in cells (FSH antagonism)
- study.conditions: hFSHR clone 16 cells (CHO cells stably transfected with the human FSH receptor); in the presence of 1e-9 mol/l hFSH; 37° C. for 2 h; read-out: IC50 (FSH-antagonistic effect in the HTRF assay)
quantity.measured: IC50 (nM)
Record the value in nM, omitting the unit from your answer.

// lookup IC50 for CNC(=O)c1ccc(-c2ccc(OC(F)(F)F)c(C(=O)N[C@@H](CO)Cc3n[nH]c4c(F)cccc34)c2)cc1Cl
5000

Then COc1ccc(-c2cc3c(c(C(=O)NC(CO)Cc4c[nH]c5cccnc45)c2)OCCCC3)cc1OC (stereo not drawn) ?
1000

Then what about the compound CNC(=O)c1cc(F)cc(-c2ccc(OC(C)C)c(C(=O)NC(CO)Cc3cc4ncccc4[nH]3)c2)c1 (stereo not drawn) ?
70
